Measured On: T1, mfNPR1-mFc:hBNP complex (monkey; human, UniProt P16860 103-134)
T1 construct: Receptor-Fc pre-complexed with 10-fold hBNP
Assay Notes: SPR Biacore, mAb captured by anti-human Fc, 37C
Observed Property: koff (s⁻¹)
Give the value in s⁻¹ but do not write s⁻¹ after it.

Examples with answers:
{"Binder": "mAb25497 (antibody, human IgG4, V domains shown) VH: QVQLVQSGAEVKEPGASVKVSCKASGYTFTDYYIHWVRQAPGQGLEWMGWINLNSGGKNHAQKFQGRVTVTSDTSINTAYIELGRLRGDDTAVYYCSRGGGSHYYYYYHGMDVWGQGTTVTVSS VL: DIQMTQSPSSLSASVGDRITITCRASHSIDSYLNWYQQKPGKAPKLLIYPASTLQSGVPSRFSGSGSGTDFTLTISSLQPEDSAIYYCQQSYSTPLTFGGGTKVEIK", "Observed Property": "koff", "Reading": 0.000166}
{"Binder": "mAb22033 (antibody, human IgG4, V domains shown) VH: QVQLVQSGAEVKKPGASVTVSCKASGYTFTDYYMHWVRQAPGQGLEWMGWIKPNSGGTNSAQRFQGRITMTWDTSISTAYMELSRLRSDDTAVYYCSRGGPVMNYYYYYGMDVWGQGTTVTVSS VL: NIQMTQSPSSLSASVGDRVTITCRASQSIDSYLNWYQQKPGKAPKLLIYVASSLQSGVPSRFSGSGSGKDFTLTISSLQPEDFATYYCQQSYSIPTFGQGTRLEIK", "Observed Property": "koff", "Reading": "8.8e-05"}
{"Binder": "mAb25491 (antibody, human IgG4, V domains shown) VH: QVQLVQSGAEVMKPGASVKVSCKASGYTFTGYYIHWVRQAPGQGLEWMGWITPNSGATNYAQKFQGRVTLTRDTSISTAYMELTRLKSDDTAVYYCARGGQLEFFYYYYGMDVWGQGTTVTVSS VL: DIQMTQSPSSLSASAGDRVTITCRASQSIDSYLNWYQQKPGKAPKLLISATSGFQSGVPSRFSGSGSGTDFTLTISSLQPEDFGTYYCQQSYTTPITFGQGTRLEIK", "Observed Property": "koff", "Reading": 0.00011}

stdin: Quick check: koff of mAb22035 (antibody, human IgG4, V domains shown) VH: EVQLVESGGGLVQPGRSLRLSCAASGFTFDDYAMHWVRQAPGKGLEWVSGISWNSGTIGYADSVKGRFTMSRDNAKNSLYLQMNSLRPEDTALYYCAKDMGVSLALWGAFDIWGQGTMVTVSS VL: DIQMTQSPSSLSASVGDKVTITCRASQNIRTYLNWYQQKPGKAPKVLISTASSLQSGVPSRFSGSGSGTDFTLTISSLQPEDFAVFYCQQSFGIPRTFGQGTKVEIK ?
stdout: 9.48e-05

stdin: Quick check: koff of mAb25502 (antibody, human IgG4, V domains shown) VH: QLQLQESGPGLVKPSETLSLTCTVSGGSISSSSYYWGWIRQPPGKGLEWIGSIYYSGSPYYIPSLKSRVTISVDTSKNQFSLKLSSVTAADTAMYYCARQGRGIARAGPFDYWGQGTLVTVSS VL: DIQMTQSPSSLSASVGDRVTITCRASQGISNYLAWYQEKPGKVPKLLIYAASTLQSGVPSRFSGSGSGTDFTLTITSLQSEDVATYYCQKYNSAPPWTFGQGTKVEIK ?
stdout: 0.000481

stdin: Quick check: koff of mAb25479 (antibody, human IgG4, V domains shown) VH: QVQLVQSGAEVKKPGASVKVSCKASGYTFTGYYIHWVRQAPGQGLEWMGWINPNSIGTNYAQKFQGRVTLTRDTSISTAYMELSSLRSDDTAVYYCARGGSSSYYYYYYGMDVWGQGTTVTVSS VL: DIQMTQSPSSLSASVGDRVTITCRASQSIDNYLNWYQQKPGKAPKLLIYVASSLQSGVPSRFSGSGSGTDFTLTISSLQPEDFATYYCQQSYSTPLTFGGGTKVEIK ?
stdout: 0.000293

stdin: Quick check: koff of mAb22805 (antibody, human IgG4, V domains shown) VH: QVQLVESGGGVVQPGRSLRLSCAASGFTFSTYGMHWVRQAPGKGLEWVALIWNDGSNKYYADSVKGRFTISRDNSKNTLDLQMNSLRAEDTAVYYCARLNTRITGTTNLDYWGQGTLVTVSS VL: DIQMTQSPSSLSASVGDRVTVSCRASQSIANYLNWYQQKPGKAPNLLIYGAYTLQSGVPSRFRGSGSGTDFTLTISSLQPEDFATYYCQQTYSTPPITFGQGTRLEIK ?
stdout: 0.000202

stdin: Quick check: koff of mAb22809 (antibody, human IgG4, V domains shown) VH: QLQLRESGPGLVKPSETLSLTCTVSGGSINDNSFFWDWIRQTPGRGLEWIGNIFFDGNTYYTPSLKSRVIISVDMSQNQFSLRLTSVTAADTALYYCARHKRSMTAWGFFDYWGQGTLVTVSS VL: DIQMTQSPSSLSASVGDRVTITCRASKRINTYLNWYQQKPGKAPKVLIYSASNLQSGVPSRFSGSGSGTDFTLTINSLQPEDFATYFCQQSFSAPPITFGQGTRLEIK ?
stdout: 0.000229

stdin: Quick check: koff of mAb25508 (antibody, human IgG4, V domains shown) VH: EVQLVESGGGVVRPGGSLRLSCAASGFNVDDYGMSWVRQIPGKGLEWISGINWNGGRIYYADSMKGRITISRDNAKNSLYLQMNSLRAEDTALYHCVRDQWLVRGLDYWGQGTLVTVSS VL: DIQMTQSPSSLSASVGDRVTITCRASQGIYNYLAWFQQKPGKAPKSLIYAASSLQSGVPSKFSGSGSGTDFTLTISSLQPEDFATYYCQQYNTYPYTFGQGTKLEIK ?
stdout: 0.00015
